In what follows, each item is paired with its Ki for Nitric oxide synthase 3 (Bos taurus).

>  <molecule>
Cc1cc(N)nc(C[C@H]2CNC[C@H]2NCCOCCc2cccc(F)c2)c1 (racemic)

>  <tgt>
Nitric oxide synthase 3 (Bos taurus)
Sequence (P29473 whole entry): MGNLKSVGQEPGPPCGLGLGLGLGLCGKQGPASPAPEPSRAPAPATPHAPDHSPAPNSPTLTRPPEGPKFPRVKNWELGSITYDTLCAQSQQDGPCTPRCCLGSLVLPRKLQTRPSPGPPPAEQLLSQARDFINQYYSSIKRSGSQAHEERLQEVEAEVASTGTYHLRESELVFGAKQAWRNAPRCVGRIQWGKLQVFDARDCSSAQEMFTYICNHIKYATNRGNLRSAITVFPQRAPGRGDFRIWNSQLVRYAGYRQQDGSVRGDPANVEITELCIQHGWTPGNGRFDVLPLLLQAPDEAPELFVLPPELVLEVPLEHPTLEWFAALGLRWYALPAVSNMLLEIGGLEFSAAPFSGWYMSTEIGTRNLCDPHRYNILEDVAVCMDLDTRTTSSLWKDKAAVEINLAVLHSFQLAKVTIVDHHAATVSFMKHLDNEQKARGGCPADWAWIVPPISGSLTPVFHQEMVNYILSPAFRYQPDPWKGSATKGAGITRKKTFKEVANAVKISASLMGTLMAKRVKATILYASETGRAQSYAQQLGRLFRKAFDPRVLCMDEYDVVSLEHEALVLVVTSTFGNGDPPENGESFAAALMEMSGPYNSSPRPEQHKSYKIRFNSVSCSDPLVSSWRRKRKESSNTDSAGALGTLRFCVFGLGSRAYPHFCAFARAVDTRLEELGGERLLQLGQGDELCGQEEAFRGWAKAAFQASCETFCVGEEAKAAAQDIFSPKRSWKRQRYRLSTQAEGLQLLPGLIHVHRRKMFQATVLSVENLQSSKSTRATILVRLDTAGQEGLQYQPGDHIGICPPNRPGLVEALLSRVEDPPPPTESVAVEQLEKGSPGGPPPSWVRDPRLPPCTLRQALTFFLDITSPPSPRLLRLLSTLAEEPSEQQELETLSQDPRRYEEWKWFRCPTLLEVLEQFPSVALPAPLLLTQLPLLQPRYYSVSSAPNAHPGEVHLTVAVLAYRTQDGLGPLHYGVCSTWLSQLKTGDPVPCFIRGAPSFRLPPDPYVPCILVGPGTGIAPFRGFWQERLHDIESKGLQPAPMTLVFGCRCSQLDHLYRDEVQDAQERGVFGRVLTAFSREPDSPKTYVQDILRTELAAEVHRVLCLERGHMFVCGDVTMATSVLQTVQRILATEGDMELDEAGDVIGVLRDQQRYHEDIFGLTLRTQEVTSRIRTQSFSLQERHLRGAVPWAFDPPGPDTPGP

>  <Ki / µM>
33

$$$$
>  <molecule>
Cc1cc(N)nc(C[C@H]2CNC[C@H]2OCCNC(=O)Cc2cccc(F)c2)c1 (racemic)

>  <tgt>
Nitric oxide synthase 3 (Bos taurus)

>  <Ki / µM>
107

$$$$

====

tgt: Nitric oxide synthase 1 (Rattus norvegicus, UniProt P29476)
Sequence (P29476 whole entry): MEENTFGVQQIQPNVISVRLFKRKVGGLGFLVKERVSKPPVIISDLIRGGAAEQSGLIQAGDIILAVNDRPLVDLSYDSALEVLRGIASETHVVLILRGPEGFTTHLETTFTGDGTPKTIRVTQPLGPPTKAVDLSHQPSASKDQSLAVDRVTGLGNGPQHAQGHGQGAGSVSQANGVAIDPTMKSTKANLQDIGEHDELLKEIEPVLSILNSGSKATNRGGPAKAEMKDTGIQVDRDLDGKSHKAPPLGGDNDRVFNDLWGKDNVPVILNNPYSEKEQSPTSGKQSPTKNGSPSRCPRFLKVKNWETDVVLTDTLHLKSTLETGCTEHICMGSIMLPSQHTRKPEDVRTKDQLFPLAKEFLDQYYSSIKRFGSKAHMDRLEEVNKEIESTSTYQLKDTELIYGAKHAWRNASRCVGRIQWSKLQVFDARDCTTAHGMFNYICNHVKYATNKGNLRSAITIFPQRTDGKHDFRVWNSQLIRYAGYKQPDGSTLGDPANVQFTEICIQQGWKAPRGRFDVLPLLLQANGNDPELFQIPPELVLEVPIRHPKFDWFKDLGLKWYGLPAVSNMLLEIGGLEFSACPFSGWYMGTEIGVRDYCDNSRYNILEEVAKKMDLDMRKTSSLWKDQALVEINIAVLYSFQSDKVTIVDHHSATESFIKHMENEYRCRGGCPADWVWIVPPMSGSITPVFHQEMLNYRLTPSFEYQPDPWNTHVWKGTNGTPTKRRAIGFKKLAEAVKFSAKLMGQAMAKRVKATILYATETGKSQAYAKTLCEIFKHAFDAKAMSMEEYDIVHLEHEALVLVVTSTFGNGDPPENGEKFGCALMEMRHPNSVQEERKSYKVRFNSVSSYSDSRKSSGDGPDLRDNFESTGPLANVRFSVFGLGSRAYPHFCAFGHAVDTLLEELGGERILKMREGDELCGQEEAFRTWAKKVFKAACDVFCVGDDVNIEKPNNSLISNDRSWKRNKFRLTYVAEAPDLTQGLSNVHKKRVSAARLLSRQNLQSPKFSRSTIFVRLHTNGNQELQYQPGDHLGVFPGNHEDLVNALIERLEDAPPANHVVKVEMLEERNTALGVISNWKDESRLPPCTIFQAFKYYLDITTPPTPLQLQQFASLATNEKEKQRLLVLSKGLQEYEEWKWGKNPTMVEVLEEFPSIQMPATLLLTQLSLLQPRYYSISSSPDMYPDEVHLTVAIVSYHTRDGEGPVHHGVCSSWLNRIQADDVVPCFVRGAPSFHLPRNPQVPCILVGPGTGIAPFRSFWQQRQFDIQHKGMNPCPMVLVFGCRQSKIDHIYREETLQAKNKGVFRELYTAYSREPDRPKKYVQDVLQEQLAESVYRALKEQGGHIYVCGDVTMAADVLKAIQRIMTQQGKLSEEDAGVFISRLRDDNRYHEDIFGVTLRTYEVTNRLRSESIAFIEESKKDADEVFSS
measurement.type: Ki (µM)

>  <compound>
Cc1cc(N)nc(C[C@H]2CNC[C@H]2OCCNC(=O)Cc2cccc(F)c2)c1 (racemic)

>  <measurement.type>
Ki

>  <unit.label>
µM

>  <endpoint.value>
5

$$$$
